For each of the substances below, state its released dosage.
Assay type: physicochemical
Details: 0.1 mg/ml in physiological saline, at the mouthpiece
Remember to put the unit after the number in your answer.

Gly-Leu-Ser-Lys-Gly-Cys-Phe-Gly-Leu-Lys-Leu-Asp-Arg-Ile-Gly-Ser-Met-Ser-Gly-Leu-Gly-Cys [C-type natriuretic peptide]
0.077 mg
Ac-Ser-Tyr-Ser-Met-Glu-His-Phe-Arg-Trp-Gly-Lys-Pro-Val-NH2 [α-melanocyte stimulating hormone]
0.045 mg
His-Ser-Asp-Gly-Ile-Phe-Thr-Asp-Ser-Tyr-Ser-Arg-Tyr-Arg-Lys-Gln-Met-Ala-Val-Lys-Lys-Tyr-Leu-Ala-Ala-Val-Leu-Gly-Lys-Arg-Tyr-Lys-Gln-Arg-Val-Lys-Asn-Lys [PACAP-38]
0.058 mg

In the following, a different substance is considered.
Suppose we examine the substance Ser-Pro-Lys-Met-Val-Gln-Gly-Ser-Gly-Cys-Phe-Gly-Arg-Lys-Met-Asp-Arg-Ile-Ser-Ser-Ser-Ser-Gly-Leu-Gly-Cys-Lys-Val-Leu-Arg-Arg-His [B-type natriuretic peptide] ; what released dosage value has been reported?
0.069 mg
